Value source: patent US20250129027A1

- Assay details: Aqueous solubility in PBS buffer pH 7.4 (LC-MS)
- Assay type: physicochemical
- Experimental context: phosphate buffer, kinetic from dmso stock, PBS buffer pH 7.4, room temperature, spiked at 100 μM from DMSO stock
Property name: solubility (µM)
Give a bare numeral; the unit µM is implied.

Entry NC(=O)c1cccc(-c2cccc(OC(=O)NC3CCCCC3)c2)c1 [URB597, reference compound] , solubility reported as 2.8

Entry COc1ccc(OC(=O)NC2CCCCCC2)cc1-c1cncc(-c2ncco2)c1 , solubility reported as 16.3

Entry COc1ccc(OC(=O)NC2CCCCCC2)cc1-c1cncc(-c2nnco2)c1 , solubility reported as 16.2

Entry COc1cc(OC(=O)NC2CCCCCC2)cc(-c2cncc(-c3nnco3)c2)c1 , solubility reported as 9.2

Entry O=C(NC1CCCCC1)Oc1cccc(-c2cncc(-c3ccco3)c2)c1 , solubility reported as 1.4

Entry O=C(NC1CCCCC1)Oc1cccc(-c2cncc(-c3nnco3)n2)c1 , solubility reported as 73.6

Entry O=C(NC1CCCCCC1)Oc1ccc(F)c(-c2cncc(-c3ncco3)c2)c1 , solubility reported as 8.6

Entry O=C(NC1CCCCCC1)Oc1cccc(-c2cncc(-c3ncn[nH]3)c2)c1 , solubility reported as 8.6

Entry O=C(NC1CCCCC1)Oc1ccc(O)c(-c2cncc(-c3nnco3)c2)c1 , solubility reported as 92.5
